target: CYP2C9 (Homo sapiens); construct: pooled human liver microsomes (0.25 mg/mL); tissue BD Gentest Co. H161; host or cells: pooled human liver microsomes; test: Cocktail probe assay in pooled human liver microsomes: diclofenac 4-hydroxylation (IC50); type: in vitro ADME; details: 10 μM diclofenac, with 30 min preincubation in presence of NADPH
pIC50: −log10 of the molar value.
TEST_READOUT: pIC50

1. COc1cc(-c2cc(=O)c3c(O)c(OC)c(O)cc3o2)ccc1O
2. COc1ccc(-c2cc(=O)c3c(O)c(OC)c(O)cc3o2)cc1OC
Ask: // compare: 1 vs 2 , metric pIC50, want the smaller Indicate which entry you chose by stating its label.
Reply: 1

====

target: CYP2C9 (Homo sapiens, UniProt P11712); construct: pooled human liver microsomes (0.25 mg/mL); tissue BD Gentest Co. H161; host or cells: pooled human liver microsomes; assay: Cocktail probe assay in pooled human liver microsomes: diclofenac 4-hydroxylation (IC50); assay type: in vitro ADME; details: 10 μM diclofenac, no preincubation
Sequence (P11712 whole entry): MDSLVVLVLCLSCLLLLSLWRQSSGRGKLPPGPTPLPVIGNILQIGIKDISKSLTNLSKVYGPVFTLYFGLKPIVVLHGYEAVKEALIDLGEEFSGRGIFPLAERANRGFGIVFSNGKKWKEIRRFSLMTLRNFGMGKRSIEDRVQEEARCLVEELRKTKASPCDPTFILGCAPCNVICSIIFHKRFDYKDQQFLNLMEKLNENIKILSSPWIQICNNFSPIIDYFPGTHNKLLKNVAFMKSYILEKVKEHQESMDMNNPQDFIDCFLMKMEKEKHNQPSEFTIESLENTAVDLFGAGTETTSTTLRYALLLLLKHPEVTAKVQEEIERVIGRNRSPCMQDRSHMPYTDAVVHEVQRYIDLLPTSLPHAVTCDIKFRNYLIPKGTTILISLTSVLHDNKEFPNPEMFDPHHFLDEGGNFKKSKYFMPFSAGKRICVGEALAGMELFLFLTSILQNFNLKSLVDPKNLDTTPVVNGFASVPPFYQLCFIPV
pIC50: −log10 of the molar value.
TEST_READOUT: pIC50

I. COc1cc(-c2cc(=O)c3c(O)c(OC)c(O)cc3o2)ccc1O
II. COc1ccc(-c2cc(=O)c3c(O)c(OC)c(O)cc3o2)cc1OC
Ask: Response body: label of entry with the larger pIC50; valid values I , II . Indicate which entry you chose by stating its label.
Reply: II

====

Sequence of the target: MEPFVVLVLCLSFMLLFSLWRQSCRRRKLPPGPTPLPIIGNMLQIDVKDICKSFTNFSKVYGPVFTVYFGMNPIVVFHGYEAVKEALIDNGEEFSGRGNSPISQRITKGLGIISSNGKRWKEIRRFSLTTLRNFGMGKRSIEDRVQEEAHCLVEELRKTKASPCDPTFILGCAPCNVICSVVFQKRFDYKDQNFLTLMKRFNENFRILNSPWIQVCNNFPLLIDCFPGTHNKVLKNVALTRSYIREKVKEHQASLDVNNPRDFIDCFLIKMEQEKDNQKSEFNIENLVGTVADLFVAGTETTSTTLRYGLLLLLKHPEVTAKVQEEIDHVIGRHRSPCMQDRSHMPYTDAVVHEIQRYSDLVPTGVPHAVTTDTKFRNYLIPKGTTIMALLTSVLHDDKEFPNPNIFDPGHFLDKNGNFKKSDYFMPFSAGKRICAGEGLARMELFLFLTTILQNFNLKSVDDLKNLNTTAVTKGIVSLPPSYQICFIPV
TEST_READOUT: Ki (µM)
API: value field is a number in µM; no unit string.

Ask: Find the recorded Ki belonging to COc1cc(-c2cc(=O)c3c(O)c(OC)c(O)cc3o2)ccc1O and report it.
Reply: 109

====

biological target: CYP2C19 (Homo sapiens); construct: pooled human liver microsomes (0.25 mg/mL); tissue BD Gentest Co. H161; host or cells: pooled human liver microsomes; assay: Cocktail probe assay in pooled human liver microsomes: [S]-mephenytoin 4'-hydroxylation (IC50); type: in vitro ADME; conditions: 50 μM [S]-mephenytoin, no preincubation
Sequence (P33261 whole entry): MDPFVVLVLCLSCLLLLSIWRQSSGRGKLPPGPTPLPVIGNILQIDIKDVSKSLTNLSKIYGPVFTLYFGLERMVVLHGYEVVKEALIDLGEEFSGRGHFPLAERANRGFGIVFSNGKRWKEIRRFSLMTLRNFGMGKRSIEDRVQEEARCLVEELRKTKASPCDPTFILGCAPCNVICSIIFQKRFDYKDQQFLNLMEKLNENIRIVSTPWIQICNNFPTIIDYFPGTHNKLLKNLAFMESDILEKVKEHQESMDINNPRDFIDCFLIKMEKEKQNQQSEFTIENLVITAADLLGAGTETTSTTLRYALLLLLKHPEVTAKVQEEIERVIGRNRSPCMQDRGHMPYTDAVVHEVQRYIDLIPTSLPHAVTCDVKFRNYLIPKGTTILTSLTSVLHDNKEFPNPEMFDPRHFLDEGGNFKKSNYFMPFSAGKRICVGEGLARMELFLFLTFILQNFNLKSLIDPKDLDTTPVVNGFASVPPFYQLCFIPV
pIC50: −log10 of the molar value.
TEST_READOUT: pIC50

COMPOUND	pIC50
COc1cc(-c2cc(=O)c3c(O)c(OC)c(O)cc3o2)ccc1O [jaceosidin]	4.19
COc1ccc(-c2cc(=O)c3c(O)c(OC)c(O)cc3o2)cc1OC [eupatilin]	4.32
